Measured values drawn from patent US10851105B2 for this set.

Overview of recorded pIC50 for various compounds
study system: UniProtKB P21802
Sequence (P21802 22-821): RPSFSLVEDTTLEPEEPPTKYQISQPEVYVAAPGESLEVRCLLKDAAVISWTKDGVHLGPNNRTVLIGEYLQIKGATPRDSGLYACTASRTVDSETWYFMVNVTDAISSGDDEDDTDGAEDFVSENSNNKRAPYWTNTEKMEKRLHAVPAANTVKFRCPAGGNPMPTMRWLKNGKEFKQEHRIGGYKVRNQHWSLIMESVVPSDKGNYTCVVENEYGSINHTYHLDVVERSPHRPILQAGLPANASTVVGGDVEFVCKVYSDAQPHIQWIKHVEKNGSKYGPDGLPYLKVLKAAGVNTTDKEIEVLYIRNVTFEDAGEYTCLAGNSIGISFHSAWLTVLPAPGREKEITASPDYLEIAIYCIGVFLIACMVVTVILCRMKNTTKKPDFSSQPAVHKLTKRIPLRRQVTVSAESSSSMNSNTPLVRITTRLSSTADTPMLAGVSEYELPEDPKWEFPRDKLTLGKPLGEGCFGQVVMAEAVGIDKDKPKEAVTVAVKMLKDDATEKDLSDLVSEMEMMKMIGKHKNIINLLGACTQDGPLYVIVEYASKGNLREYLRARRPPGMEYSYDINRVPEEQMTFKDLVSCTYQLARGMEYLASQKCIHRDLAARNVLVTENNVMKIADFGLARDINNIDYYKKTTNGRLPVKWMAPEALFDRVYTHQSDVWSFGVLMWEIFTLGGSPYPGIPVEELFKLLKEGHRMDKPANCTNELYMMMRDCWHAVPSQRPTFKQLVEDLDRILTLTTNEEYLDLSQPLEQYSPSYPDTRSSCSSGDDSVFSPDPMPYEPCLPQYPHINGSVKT
test summary: FGFR Enzymatic Assay (FRET peptide phosphorylation), FGFR2
measurement setup: read-out: FGFR2 IC50; pre-incubated for 5 to 10 minutes
pIC50: −log10 of the molar value.
attribute measured: pIC50

> print(dat)
                                   compound  attribute.measured      measured
1  C=CC(=O)N(C)c1cc2c(cn1)CN(c1c(F)c(OC)cc(OC)c1F)C(=O)C21CC1               pIC50  6.70 to 7.52
2  C=CC(=O)N[C@H]1CCC[C@H]1Oc1ncc2c(n1)C1(CC1)C(=O)N(c1c(F)c(OC)cc(OC)c1F)C2               pIC50        < 6.70
3  C=CC(=O)NC1COCC1Nc1cc2c(cn1)CN(c1c(F)c(OC)cc(OC)c1F)C(=O)C21CC1 (racemic)               pIC50        < 6.70
4  C=CC(=O)Nc1ccc(N2CCN(C)CC2)cc1Nc1cc2c(cn1)CN(c1c(F)c(OC)cc(OC)c1F)C(=O)C21CC1               pIC50        < 6.70
